Organism: Rattus norvegicus
Test Description: Ester prodrugs: recovery of parent compound in rat urine
Format: ADME, organism-based
Conditions: in vivo
Entries and their Urinary recovery
Provide only the numeric value, understood in %.

In [3]: df
Out[3]:
                                   compound  measurement_unit  meas_value
0  COc1ncnc2c1ncn2[C@@H]1O[C@H](CO)[C@@H](OC(=O)C(C)C)[C@@H]1OC(=O)C(C)C                 %         2.3
1  COc1ncnc2c1ncn2[C@@H]1O[C@H](COC(=O)COc2ccccc2)[C@@H](OC(=O)COc2ccccc2)[C@@H]1OC(=O)COc1ccccc1                 %         4.6
2  CCCCC(=O)OC[C@H]1O[C@@H](n2cnc3c(OC)ncnc32)[C@@H](O)[C@@H]1OC(=O)CCCC                 %        12.8

Exercise: Quick one: Urinary recovery of "COc1ncnc2c1ncn2[C@@H]1O[C@H](CO)[C@@H](O)[C@@H]1O" ?
Solution: 3.8

Exercise: Lookup "COc1ncnc2c1ncn2[C@@H]1O[C@H](COC(=O)c2ccccc2)[C@@H](OC(=O)c2ccccc2)[C@@H]1OC(=O)c1ccccc1"
Solution: 0.9

Exercise: Lookup "COc1ncnc2c1ncn2[C@@H]1O[C@H](COC(=O)C(C)C)[C@@H](O)[C@@H]1OC(=O)C(C)C"
Solution: 4.2

Exercise: Lookup "COc1ncnc2c1ncn2[C@@H]1O[C@H](COC(C)=O)[C@@H](OC(C)=O)[C@@H]1OC(C)=O"
Solution: 8.3

Exercise: Lookup "COc1ncnc2c1ncn2[C@@H]1O[C@H](COC(=O)Cc2ccccc2)[C@@H](OC(=O)Cc2ccccc2)[C@@H]1O"
Solution: 1.5

Exercise: Lookup "COc1ncnc2c1ncn2[C@@H]1O[C@H](CO)[C@@H](OC(C)=O)[C@@H]1OC(C)=O"
Solution: 19.2

Exercise: Lookup "COc1ncnc2c1ncn2[C@@H]1O[C@H](CO)[C@@H](OC(=O)c2ccccc2)[C@@H]1OC(=O)c1ccccc1"
Solution: 0.1

Exercise: Lookup "CCC(=O)O[C@H]1[C@H](OC(=O)CC)[C@@H](CO)O[C@H]1n1cnc2c(OC)ncnc21"
Solution: 8.7

Exercise: Lookup "COc1ncnc2c1ncn2[C@@H]1O[C@H](CO)[C@@H](OC(=O)c2ccc(C)cc2)[C@@H]1OC(=O)c1ccc(C)cc1"
Solution: 0.2

Exercise: Lookup COc1ncnc2c1ncn2[C@@H]1O[C@H](COC(=O)c2ccccc2)C(OC(=O)c2ccccc2)[C@@H]1O (single isomer, unassigned)
Solution: 4.3

Exercise: Lookup "CCCC(=O)OC[C@H]1O[C@@H](n2cnc3c(OC)ncnc32)[C@@H](OC(=O)CCC)[C@@H]1OC(=O)CCC"
Solution: 0.7

Exercise: Lookup "CCCCC(=O)O[C@H]1[C@H](OC(=O)CCCC)[C@@H](CO)O[C@H]1n1cnc2c(OC)ncnc21"
Solution: 9.1

Exercise: Lookup "COc1ncnc2c1ncn2[C@@H]1O[C@H](COC(=O)c2ccccc2)[C@@H](O)[C@@H]1OC(=O)c1ccccc1"
Solution: 5.8

Exercise: Lookup "COc1ncnc2c1ncn2[C@@H]1O[C@H](COC(=O)c2ccc(Cl)cc2)[C@@H](OC(=O)c2ccc(Cl)cc2)[C@@H]1OC(=O)c1ccc(Cl)cc1"
Solution: 4.5

Exercise: Lookup "CCCC(=O)O[C@H]1[C@H](OC(=O)CCC)[C@@H](CO)O[C@H]1n1cnc2c(OC)ncnc21"
Solution: 4.8
